test.details: Single dose oral and intravenous PK in CD-1 mice (mesylate salt), blood
Format: in vivo
Design: unit not given here
particulars: male, CD-1, mouse, whole blood; oral 20 mg/kg
Procedure: These studies analyzed the PK profile of Compound 1 following a single oral gavage or single intravenous dose to CD-1 mice. Compound 1 (mesylate salt) was administered to four groups of male mice (n=4/group) as a single oral (po) gavage administration at dose levels of 5, 10, 20, and 50 mg/kg/adm or as single intravenous (IV) dose at 5 and 50 mg/kg/adm. The vehicle was 1% methylcellulose with 0.1% Tween-80 in study AMP800 and 5% dextrose in water in study AMP799. […]
measurement.type: AUC(0-t)

compound="CC(C)C[C@@H]1NCCN([C@@H](CC(C)C)C(=O)N2CCC3(C[C@@H]2C)OCC(CN2CCCC2)CO3)C1=O (stereo partly shown)" recorded_result=1.97

----------
test.details: 14-day daily oral repeated-dose exploratory study in CD-1 mice (mesylate salt)
Type: in vivo
particulars: male, CD-1, mouse, in vivo, po, 15 mg/kg, M, Day 1
Procedure: This study explored the TK profile of Compound 1 after 14 days once daily oral dosing in male and female CD-1 mice. Compound 1 (mesylate salt) was administered once daily for 14 consecutive days by oral gavage to groups of CD-1 mice (n=8/sex/group) at dose levels of 0 (control), 1, 5, 10 or 15 mg/kg/day. A suspension of 0.5% Methylcellulose (w/v) and 0.1% Polysorbate 80 (Tween 80) (v/v) was used as vehicle. […]
measurement.type: AUC(0-t) (ng·h/mL)

molecule="CC(C)C[C@@H]1NCCN([C@@H](CC(C)C)C(=O)N2CCC3(C[C@@H]2C)OCC(CN2CCCC2)CO3)C1=O (stereo partly shown)" measure_unit=ng·h/mL recorded_result=689

----------
test.details: 28-day once weekly oral repeated-dose DRF study in cynomolgus monkeys (mesylate salt)
Assay type: in vivo
particulars: female, cynomolgus monkey, whole blood, po, 30 mg/kg, F, Day 22
measurement.type: half-life (h)

molecule="CC(C)C[C@@H]1NCCN([C@@H](CC(C)C)C(=O)N2CCC3(C[C@@H]2C)OCC(CN2CCCC2)CO3)C1=O (stereo partly shown)" measurement_type=half-life recorded_result=5.5

----------
test.details: Single dose oral and intravenous PK in CD-1 mice (mesylate salt), blood
Assay type: in vivo
particulars: male, CD-1, mouse, whole blood; oral 10 mg/kg
Procedure: These studies analyzed the PK profile of Compound 1 following a single oral gavage or single intravenous dose to CD-1 mice. Compound 1 (mesylate salt) was administered to four groups of male mice (n=4/group) as a single oral (po) gavage administration at dose levels of 5, 10, 20, and 50 mg/kg/adm or as single intravenous (IV) dose at 5 and 50 mg/kg/adm. The vehicle was 1% methylcellulose with 0.1% Tween-80 in study AMP800 and 5% dextrose in water in study AMP799. […]
measurement.type: Tmax (min)

compound="CC(C)C[C@@H]1NCCN([C@@H](CC(C)C)C(=O)N2CCC3(C[C@@H]2C)OCC(CN2CCCC2)CO3)C1=O (stereo partly shown)" recorded_result=10.2

----------
test.details: 28-day once weekly oral repeated-dose DRF study in cynomolgus monkeys (mesylate salt)
Type: in vivo
particulars: male, cynomolgus monkey, blood, po, 60 mg/kg, M, Day 1; read-out: AUC0-Tlast
measurement.type: AUC(0-t) (ng·h/mL)

molecule="CC(C)C[C@@H]1NCCN([C@@H](CC(C)C)C(=O)N2CCC3(C[C@@H]2C)OCC(CN2CCCC2)CO3)C1=O (stereo partly shown)" recorded_result=1170
